Cited source: the OPERA property sets (Mansouri et al. 2018)

# if measured boiling point < 200 °C: criterion met  # else: criterion not met

Worked examples, 4 molecules total:
CO[SiH](OC)OC
criterion met
CCC1CCC1
criterion met
CCCNC(=O)NCCC
criterion not met
Cc1nc(C)c(C)nc1C
criterion met

Request: Please let me know if "COC1CC1" shows boiling point below 200 °C.
Response: criterion met

Request: Please let me know if CC(CCl)OC(C)CCl (stereo not given) shows boiling point below 200 °C.
Response: criterion met

Request: Please let me know if "Cc1ccc(Cc2ccccc2)cc1" shows boiling point below 200 °C.
Response: criterion not met

Request: Please let me know if "CCC/C=C/C=O" shows boiling point below 200 °C.
Response: criterion met

Request: Please let me know if "CCCCCCCCCCCCC" shows boiling point below 200 °C.
Response: criterion not met

Request: Please let me know if "CC(C)(C)c1ccc(Cl)cc1" shows boiling point below 200 °C.
Response: criterion not met

Request: Please let me know if "c1ccc2c(c1)CCO2" shows boiling point below 200 °C.
Response: criterion met

Request: Please let me know if "CCCCNC" shows boiling point below 200 °C.
Response: criterion met

* * *

readout: log10 vapour pressure (mmHg)

Example results:
C=Cc1cccc(CC)c1
-0.0947
CCOP(=S)(OCC)SCSP(=S)(OCC)OCC
-5.82
CC(=O)Oc1ccccc1
-0.4
CCCCCCCCCCc1ccccc1
-2.89
CCCCC(CC)COC(=O)COc1cc(Cl)c(Cl)cc1Cl (stereo not drawn)
-5.92

Request: Quick one: give measured log10 vapour pressure (mmHg) for "C=C1CC(=O)O1"
Response: 1.03

Request: Quick one: give measured log10 vapour pressure (mmHg) for "Nc1ccc([N+](=O)[O-])cc1"
Response: -5.49

Request: Quick one: give measured log10 vapour pressure (mmHg) for "Cc1cc(Cl)ccc1O"
Response: -1.62

* * *

readout: boiling point (°C)
Form entry: value (°C) — number only.

Example results:
O=CCc1ccccc1
195
O=[N+]([O-])c1ccc(F)c([N+](=O)[O-])c1
296
CCC(C)Cc1ccccc1 (stereo unspecified)
195

Request: Quick one: give measured boiling point for "CCOC(=O)CNc1ccccc1"
Response: 274

Request: Quick one: give measured boiling point for C1CC[C@H]2CCC[C@@H]2C1 (racemic)
Response: 167

Request: Quick one: give measured boiling point for "CC(C)N(N=O)C(C)C"
Response: 194

Request: Quick one: give measured boiling point for "ClCCCCCl"
Response: 161

Request: Quick one: give measured boiling point for "CCCCCCC=NO"
Response: 195

Request: Quick one: give measured boiling point for "CCOC(=O)N(c1ccccc1)c1ccccc1"
Response: 360

Request: Quick one: give measured boiling point for "C1CCN2C[C@@H]3C[C@@H](CN4CCCC[C@@H]34)[C@H]2C1"
Response: 325

Request: Quick one: give measured boiling point for "Nc1cccc([N+](=O)[O-])c1"
Response: 306

* * *

Recorded measurements of melting point, one per entry
Form entry: value (°C) — number only.

Example results:
O=C1C(Cl)=C(Cl)C(=O)c2ccccc21
195
Oc1ccc(Cl)c2cccnc12
130
Nc1ccc(-c2ccc(Cl)cc2)cc1
134
O=C1c2cc([N+](=O)[O-])ccc2-c2ccc([N+](=O)[O-])cc21
294
CN(C)C(=O)OC1=CC(=O)CC(C)(C)C1
45.5
CN(C)C=Nc1c(I)cc(I)c(CCC(=O)O)c1I
168

Request: Quick one: give measured melting point for "Clc1cc(Cl)c2oc3cc(Cl)c(Cl)cc3c2c1"
Response: 202

Request: Quick one: give measured melting point for "NC(=O)C(Cl)Cl"
Response: 99.4

Request: Quick one: give measured melting point for "C1CCC(NC2CCCCC2)CC1"
Response: -0.1

Request: Quick one: give measured melting point for "CCSSCC"
Response: -102

* * *

readout: melting point (°C)
Form entry: value (°C) — number only.

Example results:
O=C(O)C(F)(F)C(F)(F)C(F)(F)C(=O)O
80
CCN(CC)C(=O)SCc1ccccc1Cl
9
O=C1CCCCCCCN1
78
C=CCCCCCCCCCO
-2
C=C=CC
-136

Request: Quick one: give measured melting point for "c1ccc(C2c3ccccc3-c3ccccc32)cc1"
Response: 147

Request: Quick one: give measured melting point for "c1ccc2sncc2c1"
Response: 38

Request: Quick one: give measured melting point for "Nc1ccc(O)c2c1C(=O)c1ccccc1C2=O"
Response: 216

* * *

readout: boiling point

Example results:
c1ccc2c(c1)Nc1ccccc1S2
371 °C
C/C=C/Cl
35.2 °C
NCC1CCCC(CN)C1 (stereo not drawn)
220 °C
CC(C)(C)C(=O)C(=O)O
189 °C
CCCCCCCCCCCCCCCl
292 °C
c1ccc2cc3c(ccc4ccccc43)cc2c1
438 °C
Cc1cnc(C)o1
118 °C
C#C/C=C\C
48.4 °C

Request: Quick one: give measured boiling point for "Cl[C@@H]1CCCC[C@H]1Cl"
Response: 200 °C

Request: Quick one: give measured boiling point for "CCCC(C)(CO)CO"
Response: 234 °C

Request: Quick one: give measured boiling point for "C=CCCCCl"
Response: 105 °C

Request: Quick one: give measured boiling point for "Cc1cncc(C)c1"
Response: 172 °C

Request: Quick one: give measured boiling point for CCCC(O)C(C)(C)C (stereo not drawn)
Response: 156 °C

Request: Quick one: give measured boiling point for "Sc1ccccc1S"
Response: 238 °C

Request: Quick one: give measured boiling point for "CC(C)c1cc(C(C)C)cc(C(C)C)c1"
Response: 238 °C

Request: Quick one: give measured boiling point for "CCNC(=O)OCC"
Response: 176 °C

Request: Quick one: give measured boiling point for "CC=CCC(C)=O"
Response: 127 °C

Request: Quick one: give measured boiling point for C=CCCC(C)O (stereo not drawn)
Response: 139 °C

Request: Quick one: give measured boiling point for "O=C(Cl)C=Cc1ccccc1"
Response: 257 °C

Request: Quick one: give measured boiling point for CCOC(=O)CC(C)O (stereo not drawn)
Response: 185 °C

Request: Quick one: give measured boiling point for CCC(C)CC(C)CC (stereo not drawn)
Response: 136 °C

Request: Quick one: give measured boiling point for "ClCCC[Si](Cl)(Cl)Cl"
Response: 182 °C

* * *

# if measured melting point < -40 °C: true  # else: false

Worked examples, 8 compounds total:
O=C(O)c1c(F)c(F)c(F)c(F)c1F
false
OCCN1CCCCC1
false
CCc1ccc(C)cc1
true
CCCCN(CCO)CCCC
true
Fc1ccc(NC(=S)Nc2cc(Cl)cc(Cl)c2)cc1
false
CC1=Nc2ccc(Cl)cc2S(=O)(=O)N1
false
C[Si](C)(Cl)O[Si](C)(C)Cl
false
CCC(=O)OC(=O)CC
true

Request: Please let me know if "Cc1ccc(S)c(S)c1" shows melting point below -40 °C.
Response: false

Request: Please let me know if "NNC(=O)c1ccc(O)cc1" shows melting point below -40 °C.
Response: false

Request: Please let me know if "O=C1CCc2cc(OCCCCc3nnnn3C3CCCCC3)ccc2N1" shows melting point below -40 °C.
Response: false

Request: Please let me know if "CN(C)C(=O)Nc1ccc(SC(F)(F)Cl)c(Cl)c1" shows melting point below -40 °C.
Response: false

Request: Please let me know if "O=[N+]([O-])c1ccc(S(=O)(=O)O)c([N+](=O)[O-])c1" shows melting point below -40 °C.
Response: false

Request: Please let me know if "CC(C)(C)CC(C)(C)C" shows melting point below -40 °C.
Response: true

Request: Please let me know if "CCCCCCCCCCCCCCC=O" shows melting point below -40 °C.
Response: false

* * *

# if measured log10 vapour pressure (mmHg) < -2: rule met  # else: rule not met

Worked examples, 10 compounds total:
CCCCCCCCCCCCC(=O)OC
rule met
CCC(C)CC(C)(C)C (centres undefined)
rule not met
Fc1c(F)c(F)c(C(F)(F)F)c(F)c1F
rule not met
CCCCCCCC#N
rule not met
CCCCCCC(C)C
rule not met
C=CCN
rule not met
Cc1cccc(C)c1C
rule not met
Nc1nc(N)nc(N)n1
rule met
Fc1cc(F)c(F)c(F)c1F
rule not met
CC(C)c1ccc(O)cc1
rule not met

Lab note: next compound to report on.
Request: Please let me know if "OCC(F)(F)C(F)F" shows log10 vapour pressure (mmHg) below -2.
Response: rule not met

* * *

Recorded measurements of melting point, one per entry
Note: state the figure and append the unit.

Example results:
FC(F)(F)C(Cl)(Cl)C(F)(F)Cl
-4.3 °C
CCOC(=O)CCl
-21 °C
O=C(O)c1cc(F)c(F)c(F)c1F
86 °C
CC(C)(C)C#N
15 °C
COc1ccccc1OCC(O)CO (stereo not drawn)
78.5 °C

Request: Quick one: give measured melting point for "OCC(CO)(CO)CO"
Response: 260 °C

Request: Quick one: give measured melting point for "NS(=O)(=O)c1ccc(S(=O)(=O)CCCO)c(F)c1"
Response: 130 °C

Request: Quick one: give measured melting point for "CCCCCCCCC(C)C"
Response: -48.9 °C

Request: Quick one: give measured melting point for "C=C(CC(=O)OCC)C(=O)OCC"
Response: 58.5 °C
